- assayTarget: UniProt P03951
- Sequence (P03951 19-387 limits assumed): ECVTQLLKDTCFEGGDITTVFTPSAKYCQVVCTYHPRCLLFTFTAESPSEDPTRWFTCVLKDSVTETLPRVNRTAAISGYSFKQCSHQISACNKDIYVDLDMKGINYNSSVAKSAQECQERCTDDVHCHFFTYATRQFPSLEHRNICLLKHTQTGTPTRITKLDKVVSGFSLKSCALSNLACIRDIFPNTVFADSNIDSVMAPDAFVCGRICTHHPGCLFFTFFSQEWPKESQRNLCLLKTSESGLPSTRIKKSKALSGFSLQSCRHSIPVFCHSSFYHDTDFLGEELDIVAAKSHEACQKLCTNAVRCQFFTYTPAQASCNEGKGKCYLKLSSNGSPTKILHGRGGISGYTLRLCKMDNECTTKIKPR
- Sequence (P03951 388-625 limits assumed): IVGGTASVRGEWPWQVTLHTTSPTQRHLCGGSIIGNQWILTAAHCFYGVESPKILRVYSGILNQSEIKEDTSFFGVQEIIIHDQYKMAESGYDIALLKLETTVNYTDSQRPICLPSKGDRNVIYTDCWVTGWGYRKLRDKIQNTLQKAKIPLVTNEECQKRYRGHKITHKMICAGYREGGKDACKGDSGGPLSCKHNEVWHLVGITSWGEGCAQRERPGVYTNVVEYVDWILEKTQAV
- testName: Inhibition of human FXIa using S-2366 as chromogenic substrate preincubated with enzyme for 10 mins followed by substrate addition by spectrophotometric analysis relative to control
- Set-up: concentration or dose not given beside the values

>  <smilesText>
COc1ccc2nc(-c3ccc(OS(=O)(=O)O)cc3)n(CCCCCCn3c(-c4ccc(OS(=O)(=O)O)cc4)nc4ccc(OC)cc4c3=O)c(=O)c2c1

>  <assayTarget>
UniProt P03951

>  <inhibition / %>
95

$$$$
>  <smilesText>
O=c1c2ccccc2nc(-c2cccc(OS(=O)(=O)O)c2)n1Cc1cccc(Cn2c(-c3cccc(OS(=O)(=O)O)c3)nc3ccccc3c2=O)c1

>  <assayTarget>
UniProt P03951

>  <inhibition / %>
92

$$$$
>  <smilesText>
O=c1c2ccccc2nc(-c2ccc(OS(=O)(=O)O)cc2)n1CCCCCCCn1cc(Cn2c(-c3ccc(OS(=O)(=O)O)cc3)nc3ccccc3c2=O)nn1

>  <assayTarget>
UniProt P03951

>  <inhibition / %>
103

$$$$
>  <smilesText>
O=c1c2ccccc2nc(-c2ccc(OS(=O)(=O)O)cc2)n1CCCCCCCCCCCn1cc(Cn2c(-c3ccc(OS(=O)(=O)O)cc3)nc3ccccc3c2=O)nn1

>  <assayTarget>
UniProt P03951

>  <inhibition / %>
98

$$$$
>  <smilesText>
O=c1c2ccccc2nc(-c2cccc(OS(=O)(=O)O)c2)n1CCCCCn1c(-c2cccc(OS(=O)(=O)O)c2)nc2ccccc2c1=O

>  <assayTarget>
UniProt P03951

>  <inhibition / %>
96

$$$$
>  <smilesText>
O=c1c2ccccc2nc(-c2ccc(OS(=O)(=O)O)cc2)n1Cc1cccc(Cn2c(-c3ccc(OS(=O)(=O)O)cc3)nc3ccccc3c2=O)c1

>  <assayTarget>
UniProt P03951

>  <inhibition / %>
96

$$$$
>  <smilesText>
O=c1c2ccccc2nc(-c2ccc(OS(=O)(=O)O)cc2)n1CCCCCCn1c(-c2ccc(OS(=O)(=O)O)cc2)nc2ccccc2c1=O

>  <assayTarget>
UniProt P03951

>  <inhibition / %>
87

$$$$
>  <smilesText>
O=c1c2ccccc2nc(-c2cccc(OS(=O)(=O)O)c2)n1CCCCCCn1c(-c2cccc(OS(=O)(=O)O)c2)nc2ccccc2c1=O

>  <assayTarget>
UniProt P03951

>  <inhibition / %>
96

$$$$
>  <smilesText>
O=c1c2ccccc2nc(-c2ccc(OS(=O)(=O)O)cc2)n1CCCCCCCCCCn1cc(Cn2c(-c3ccc(OS(=O)(=O)O)cc3)nc3ccccc3c2=O)nn1

>  <assayTarget>
UniProt P03951

>  <inhibition / %>
112

$$$$
>  <smilesText>
O=c1c2ccccc2nc(-c2ccc(OS(=O)(=O)O)cc2)n1CCCCCCCCCn1cc(Cn2c(-c3ccc(OS(=O)(=O)O)cc3)nc3ccccc3c2=O)nn1

>  <assayTarget>
UniProt P03951

>  <inhibition / %>
100

$$$$
>  <smilesText>
O=c1c2ccccc2nc(-c2ccc(OS(=O)(=O)O)cc2)n1CCCCCn1c(-c2ccc(OS(=O)(=O)O)cc2)nc2ccccc2c1=O

>  <assayTarget>
UniProt P03951

>  <inhibition / %>
92

$$$$
>  <smilesText>
O=c1c2ccccc2nc(-c2ccc(OS(=O)(=O)O)cc2)n1Cc1ccccc1Cn1c(-c2ccc(OS(=O)(=O)O)cc2)nc2ccccc2c1=O

>  <assayTarget>
UniProt P03951

>  <inhibition / %>
87

$$$$
>  <smilesText>
O=c1c2ccccc2nc(-c2ccc(OS(=O)(=O)O)cc2)n1CCCCCCCn1c(-c2ccc(OS(=O)(=O)O)cc2)nc2ccccc2c1=O

>  <assayTarget>
UniProt P03951

>  <inhibition / %>
96

$$$$
